- run_description: Multiple-dose trial, plasma pharmacokinetics
- Type: in vivo, human
- applied_conditions: both sexes, human, plasma, oral, Day 15, all subjects, read-out: t1/2 (converted)
property_label: half-life (h)
Enter your answer as a number in h; do not include the unit.

Tell me half-life reported for CC(C)=CCC[C@](C)(OC1O[C@H](CO)[C@@H](O)[C@H](O)[C@H]1O)[C@H]1CC[C@]2(C)[C@@H]1[C@H](O)C[C@@H]1[C@@]3(C)CC[C@H](O)C(C)(C)[C@@H]3CC[C@]12C (stereo partly shown) [CK] 35.3

----------
- run_description: Multiple-dose trial, plasma pharmacokinetics
- Type: in vivo, human
- applied_conditions: both sexes, human, plasma, po, 200 mg, 200 mg qd oral after breakfast, Day 15, read-out: Cmax
property_label: Cmax
Please state the value followed by its unit.

Tell me Cmax reported for CC(C)=CCC[C@](C)(OC1O[C@H](CO)[C@@H](O)[C@H](O)[C@H]1O)[C@H]1CC[C@]2(C)[C@@H]1[C@H](O)C[C@@H]1[C@@]3(C)CC[C@H](O)C(C)(C)[C@@H]3CC[C@]12C (stereo partly shown) [CK] 3180 ng/mL
